# system_tested: endothelin converting enzyme (ECE) (Sus scrofa)
# Sequence (F1SU04 entry or part of it): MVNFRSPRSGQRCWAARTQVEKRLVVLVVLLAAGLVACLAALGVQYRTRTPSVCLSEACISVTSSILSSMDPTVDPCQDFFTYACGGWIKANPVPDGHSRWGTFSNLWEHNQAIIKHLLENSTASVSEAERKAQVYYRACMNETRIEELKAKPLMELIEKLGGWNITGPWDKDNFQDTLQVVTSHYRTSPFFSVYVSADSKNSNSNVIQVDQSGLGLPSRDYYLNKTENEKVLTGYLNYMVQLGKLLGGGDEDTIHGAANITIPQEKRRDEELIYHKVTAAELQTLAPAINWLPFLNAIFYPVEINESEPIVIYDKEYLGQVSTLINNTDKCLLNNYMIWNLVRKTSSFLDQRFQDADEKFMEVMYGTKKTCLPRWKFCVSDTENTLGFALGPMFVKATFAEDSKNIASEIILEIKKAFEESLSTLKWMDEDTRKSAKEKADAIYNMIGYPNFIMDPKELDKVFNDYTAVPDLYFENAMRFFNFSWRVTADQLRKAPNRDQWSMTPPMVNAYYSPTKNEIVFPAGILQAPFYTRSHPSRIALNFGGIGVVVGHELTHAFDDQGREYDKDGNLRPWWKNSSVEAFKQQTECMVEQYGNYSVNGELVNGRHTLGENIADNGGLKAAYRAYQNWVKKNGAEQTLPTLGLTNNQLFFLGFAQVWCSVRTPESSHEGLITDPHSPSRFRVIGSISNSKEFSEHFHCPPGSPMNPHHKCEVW
# measurement_protocol: "ECE" assay with porcine aortic "ECE" prep, fluorogenic substrate Suc-Ile-Ile-Trp-MCA
# Assay type: biochemical
# condition: porcine aortic endothelial cell ECE prep; 80 μM Suc-Ile-Ile-Trp-MCA; 15-20 min preincubation; overnight at 37° C.; pH 7.0; AMC fluorescence
Non-standard residues stand in square brackets, D forms with d. Residues, ends and D or L forms follow the SMILES beside them. *: point of attachment. Phe(4-Cl) = N[C@@H](Cc1ccc(Cl)cc1)C(=O)O; 1Nal = N[C@@H](Cc1cccc2ccccc12)C(=O)O; Bta = N[C@@H](Cc1csc2ccccc12)C(=O)O; Cbz = O=C(OCc1ccccc1)*; Bn = c1ccc(C*)cc1
Listed below: pIC50 values for each entry.
# pIC50 is unitless: minus log10 of the molar concentration; print number only

Solved cases below.
>>> val("O=C[C@H](Cc1ccc(Cl)cc1)NC(=O)[C@H](Cc1ccc(OCc2ccccc2)cc1)NC(=O)[C@H](Cc1cccc2ccccc12)NC(=O)OCc1ccccc1 [Example 39] (Cbz-[1Nal]-Tyr(Bn)-[Phe(4-Cl)]-aldehyde)")
7.82
>>> val("CC[C@H](C)[C@H](NC(=O)OCc1ccccc1)C(=O)N[C@H](C(=O)N[C@H](C=O)Cc1csc2ccccc12)[C@@H](C)CC [Example 18] (Cbz-Ile-Ile-[Bta]-aldehyde)")
6.22
>>> val("CC[C@H](C)[C@H](NC(=O)OCc1ccccc1)C(=O)N[C@H](C(=O)NC(CNC(=O)CO)Cc1c[nH]c2ccccc12)[C@@H](C)CC (stereo partly drawn) [Example 86]")
5.00

Now for a further compound.
IN: Provide the reported pIC50 (system: endothelin converting enzyme (ECE) (Sus scrofa)) for CC[C@H](C)[C@H](NC(=O)CCCCCNC(=O)CCCCCNC(=O)CC1NC(=O)NC1=O)C(=O)N[C@H](C(=O)NC(C=O)Cc1c[nH]c2ccccc12)[C@@H](C)CC (stereo partly drawn) [Example 70]
OUT: 7.10
